Origin of values: patent US8173674B2

molecular target: human PPARalpha (Homo sapiens); construct: amino acids S167-Y468; expressed in transfected cells; assay: cellular PPARalpha assay (luciferase reporter, stably transfected HEK cell line); format: cell-based; conditions: GR-GAL4-humanPPARalpha-LBD, read-out: PPARalpha EC50
Sequence (Q07869 167-468): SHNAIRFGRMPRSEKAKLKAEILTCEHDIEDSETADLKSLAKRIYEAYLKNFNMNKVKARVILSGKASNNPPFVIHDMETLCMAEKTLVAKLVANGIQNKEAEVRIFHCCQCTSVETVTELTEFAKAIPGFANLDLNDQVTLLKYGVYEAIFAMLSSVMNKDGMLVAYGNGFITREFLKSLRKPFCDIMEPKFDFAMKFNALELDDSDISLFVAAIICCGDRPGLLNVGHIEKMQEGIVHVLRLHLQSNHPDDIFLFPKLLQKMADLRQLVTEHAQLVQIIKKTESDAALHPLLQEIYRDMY
# key: entry, value: EC50
All answers are understood in nM, so give the number only.

Record excerpt, results attached:
CC1(C)CN(S(=O)(=O)c2ccc(-c3nc(=O)o[nH]3)cc2)c2ccc(-c3ccc(C(F)(F)F)cc3)cc21 | 3520
O=c1[nH]c(-c2ccc(S(=O)(=O)N3CCc4cc(-c5ccc(C(F)(F)F)cc5)ccc43)cc2Cl)no1 | 1110

### Prompt Please report EC50 for the following compound: `O=c1nc(-c2ccc(S(=O)(=O)N3CCc4ccc(-c5ccc(C(F)(F)F)cc5)cc4C3)cc2Cl)[nH]o1`
### Response 1640
